Tested on: Staphylococcus aureus
Experiment: Antimicrobial activity against methicillin-susceptible Staphylococcus aureus Smith by NCCLS method
Format: functional
RECORDED ENDPOINT: MIC (µg/mL)
Answers are plain numbers, in µg/mL.

Reference set (2 entries):
MOLECULE	TGT	RECORDED ENDPOINT	ENDPOINT RESULT
C=C[C@]1(C)C[C@@H](OC(=O)CSC2CCCN(C(=O)CCn3cnc4c(N5CCNCC5)nc(N)nc43)C2)[C@]2(C)[C@H](C)CC[C@]3(CCC(=O)[C@@H]32)[C@@H](C)[C@@H]1O.Cl (stereo partly drawn)	Staphylococcus aureus	MIC	0.5
C=C[C@]1(C)C[C@@H](OC(=O)CS[C@H]2CCN(C(=O)CCn3cnc4c(N5CCNCC5)nc(N)nc43)C2)[C@]2(C)[C@H](C)CC[C@]3(CCC(=O)[C@@H]32)[C@@H](C)[C@@H]1O.Cl	Staphylococcus aureus	MIC	0.5

We now examine a further molecule.
Response field MIC (Staphylococcus aureus) for item CC[C@]1(C)C[C@@H](OC(=O)COC2CCN(C(=O)CCn3cnc4c(N5CCC(N)C5)ncnc43)CC2)[C@]2(C)[C@H](C)CC[C@]3(CCC(=O)[C@@H]32)[C@@H](C)[C@@H]1O.Cl (stereo partly drawn) : 0.25

----------
System: Staphylococcus aureus
Assay: Antimicrobial activity against methicillin-susceptible Staphylococcus aureus Smith by NCCLS method
Format: functional
For each entry below, report its MIC value.
Answers are plain numbers, in µg/mL.

Could I get MIC for every one of these entries?
1. C=C[C@]1(C)C[C@@H](OC(=O)CN2CCN(C(=O)CCn3cnc4c(N5CCC(N)C5)ncnc43)CC2)[C@]2(C)[C@H](C)CC[C@]3(CCC(=O)[C@@H]32)[C@@H](C)[C@@H]1O.Cl.Cl (stereo not given in full)
2. C=C[C@]1(C)C[C@@H](OC(=O)CSCC2CCN(C(=O)CCn3cnc4c(N5CCNCC5)nc(N)nc43)CC2)[C@]2(C)[C@H](C)CC[C@]3(CCC(=O)[C@@H]32)[C@@H](C)[C@@H]1O.Cl

Solution:
[0.25, 0.25]

Give one value of MIC per listed compound.
1. CC[C@]1(C)C[C@@H](OC(=O)CS(=O)(=O)C2CCN(C(=O)CCn3cnc4c(N5CCC(N)C5)ncnc43)CC2)[C@]2(C)[C@H](C)CC[C@]3(CCC(=O)[C@@H]32)[C@@H](C)[C@@H]1O.Cl (stereo not given in full)
2. C=C[C@]1(C)C[C@@H](OC(=O)CN(C)CCN(C)C(=O)CCn2cnc3c(N4CCC(N)C4)ncnc32)[C@]2(C)[C@H](C)CC[C@]3(CCC(=O)[C@@H]32)[C@@H](C)[C@@H]1O.Cl.Cl (stereo not given in full)
3. C=C[C@]1(C)C[C@@H](OC(=O)CSC2CN(C(=O)CCn3cnc4c(N5CCNCC5)nc(N)nc43)C2)[C@]2(C)[C@H](C)CC[C@]3(CCC(=O)[C@@H]32)[C@@H](C)[C@@H]1O.Cl
4. C=C[C@]1(C)C[C@@H](OC(=O)CSC2CCCN(C(=O)CCn3cnc4c(N5CCC(N)C5)ncnc43)C2)[C@]2(C)[C@H](C)CC[C@]3(CCC(=O)[C@@H]32)[C@@H](C)[C@@H]1O.Cl (stereo not given in full)
5. C=C[C@]1(C)C[C@@H](OC(=O)CSCC2CN(C(=O)CCn3cnc4c(N5CCNCC5)nc(N)nc43)CCO2)[C@]2(C)[C@H](C)CC[C@]3(CCC(=O)[C@@H]32)[C@@H](C)[C@@H]1O.Cl (stereo not given in full)
6. C=C[C@]1(C)C[C@@H](OC(=O)CSC2CCN(C(=O)CCn3cnc4c(N5CCNCC5)nc(N)nc43)CC2)[C@]2(C)[C@H](C)CC[C@]3(CCC(=O)[C@@H]32)[C@@H](C)[C@@H]1O.Cl
7. C=C[C@]1(C)C[C@@H](OC(=O)CS[C@@H]2CCN(C(=O)CCn3cnc4c(N5CCNCC5)nc(N)nc43)C2)[C@]2(C)[C@H](C)CC[C@]3(CCC(=O)[C@@H]32)[C@@H](C)[C@@H]1O.Cl

Solution:
0.5
1
0.5
0.25
1
0.25
0.05

Tested on Staphylococcus aureus, the item C=C[C@]1(C)C[C@@H](OC(=O)CNC2CCN(C(=O)CCn3cnc4c(N5CCC(N)C5)ncnc43)CC2)[C@]2(C)[C@H](C)CC[C@]3(CCC(=O)[C@@H]32)[C@@H](C)[C@@H]1O.Cl (stereo not given in full) showed MIC equal to 0.25

----------
For each entry below, report its MIC value.
Test system: Staphylococcus aureus
Experiment: Antimicrobial activity against methicillin-susceptible Staphylococcus aureus Smith by NCCLS method
Assay type: functional
Answers are plain numbers, in µg/mL.

Worked cases, answers included:
MOLECULE	MIC [µg/mL]
C=C[C@]1(C)C[C@@H](OC(=O)CSCCCN(C)C(=O)CCn2cnc3c(N4CCC(N)C4)ncnc32)[C@]2(C)[C@H](C)CC[C@]3(CCC(=O)[C@@H]32)[C@@H](C)[C@@H]1O.Cl (stereo not given in full)	0.125
C=C[C@]1(C)C[C@@H](OC(=O)CSC2CCN(C(=O)CCn3cnc4c(N5CCNCC5)nc(N)nc43)C2)[C@]2(C)[C@H](C)CC[C@]3(CCC(=O)[C@@H]32)[C@@H](C)[C@@H]1O.Cl (stereo not given in full)	0.25
C=C[C@]1(C)C[C@@H](OC(=O)CSCCN(C)C(=O)CCn2cnc3c(N4CCC(N)C4)ncnc32)[C@]2(C)[C@H](C)CC[C@]3(CCC(=O)[C@@H]32)[C@@H](C)[C@@H]1O.Cl (stereo not given in full)	0.25

# map each molecule to its MIC
1. CC[C@]1(C)C[C@@H](OC(=O)CSC2CCN(C(=O)CCn3cnc4c(N5CCNCC5)nc(N)nc43)CC2)[C@]2(C)[C@H](C)CC[C@]3(CCC(=O)[C@@H]32)[C@@H](C)[C@@H]1O.Cl
2. C=C[C@]1(C)C[C@@H](OC(=O)CSC2CCN(C(=O)CCn3cnc4c(N5CCC(N)C5)ncnc43)CC2)[C@]2(C)[C@H](C)CC[C@]3(CCC(=O)[C@@H]32)[C@@H](C)[C@@H]1O.Cl (stereo not given in full)

Solution:
[0.25, 0.063]
